All figures here come from a melting point compilation (Tetko et al.).

Please assign no (0) whenever melting point is at or above 100 °C, and yes (1) whenever it is below.

| COMPOUND | GROUP |
| --- | --- |
| Cc1ccc(NN=C2C(=O)NN=C2c2c(O)c3ccccc3n(C)c2=O)cc1 | no (0) |
| C[C@]12CC[C@H]3[C@@H](CCC4CC(=O)CC[C@@]43C)[C@@H]1CC[C@H]2OC=O (stereo not given in full) | no (0) |
| COCC(=O)N(c1c(C)cccc1C)C(C)C(=O)OC (stereo not given) | yes (1) |
| O=[N+]([O-])c1cc(-c2ccccc2)ccc1O | yes (1) |
| C=CC1CC2C=CC1C2 (stereo not given) | yes (1) |
| N#CC(c1ccc(Cl)cc1)c1c(Cl)cc(-n2ncc(=O)[nH]c2=O)cc1Cl (stereo not given) | no (0) |
| CSC(SC)=C(C(C)=O)C(C)=O | yes (1) |
| CN1CCN2c3ncccc3Cc3ccccc3C2C1 (stereo not given) | no (0) |
| c1ccc2c(c1)ccc1nc3ccc4ccccc4c3cc12 | no (0) |
| NC(CO)C(=O)O (racemic) | no (0) |
| CC1=CC(=O)C(C(C)C)=CC1=O | yes (1) |
| Nc1c2ccccc2nc2ccccc12 | no (0) |
| CCOC(=O)CCCCCC(=O)OCC | yes (1) |
| CCOC(=O)N/C=C1/C(=O)C2(C)CCC1C2(C)C (stereo not given) | no (0) |
| COC(CCl)OC | yes (1) |

---

melting point: recorded values
OUTCOME MEASURE: melting point

| COMPOUND | OUTCOME MEASURE | OBSERVED VALUE |
| --- | --- | --- |
| COc1c(OC)c2occc2c2oc(=O)ccc12 | melting point | 119 °C |
| OCc1cccc(N2CCOCC2)c1 | melting point | 51 to 54 °C |
| NCc1ccc(S(N)(=O)=O)cc1 | melting point | 151 °C |
| Nc1cccc(S(=O)(=O)N2CCCCC2)c1 | melting point | 117 to 118 °C |
| NC(CCc1ccccc1)C(=O)O (single isomer, unassigned; (-)) | melting point | 300 °C |
| CN(C)C(=O)Nc1ccc(Oc2ccc(Cl)cc2)cc1 | melting point | 151 °C |
| NNC(=O)OCc1ccccc1 | melting point | 68 °C |
| O=C(Cc1ccccc1)OCc1ccccc1[N+](=O)[O-] | melting point | 54 °C |
| Cc1ccc(O)c(C(O)Cc2ccccc2)c1 (stereo not given) | melting point | 83 °C |
| COc1ccc(NC(=O)C(C(F)(F)F)C(F)(F)F)cc1 | melting point | 185 to 187 °C |
| Oc1c(F)ccc(F)c1F | melting point | 33.5 °C |
| O=C(O)c1ccc(CBr)c([N+](=O)[O-])c1 | melting point | 131 °C |
| C/C(=N\O)c1ccc2c(c1)CCCC2 | melting point | 104 to 106 °C |
| O=C(Nc1cccc(N=Nc2cccc(NC(=O)c3ccccc3)c2)c1)c1ccccc1 | melting point | 285 °C |
| Brc1ccc2[nH]ncc2c1 | melting point | 123 to 124 °C |
| CC1CCC(C(C)C)C(OC(=O)C(Cc2ccccc2)c2ccccc2)C1 (stereo not given) | melting point | 101 °C |
| O=Cc1csc2ccc(Cl)cc12 | melting point | 109 to 111 °C |
| O=C(c1noc(-c2ccc(Cl)cc2)c1S(=O)(=O)c1ccccc1)c1cccc2ccccc12 | melting point | 169 °C |
| NNC(N)=O | melting point | 96 °C |
| C/C(=N\c1cccc2cccc(N)c12)c1c(O)c2ccccc2n(-c2ccccc2)c1=O | melting point | > 300 °C |
| Cc1cccc2ccccc12 | melting point | 34 °C |
| CC(=O)Nc1cc(Cl)c(Cl)cc1NC(C)=O | melting point | 255 to 258 °C |
| CCc1cccc(CC)c1N(COC)C(=O)CCl | melting point | 41 °C |
| Sc1nc2cc(Cl)c(Cl)cc2[nH]1 | melting point | 300 °C |
| Brc1cc(Br)c(Oc2cc(Br)c(Br)cc2Br)c(Br)c1 | melting point | 131 to 132 °C |
